Listing of entries alongside the reported switch fluorescence ratio.
tested on: ATP; assay: switch fluorescence ratio, 500 uM ATP over buffer (Cy3 cluster intensity, sum of 5 cycles each) (fold (ratio)); higher = stronger signal-on switching upon ATP binding; sequences stand for … in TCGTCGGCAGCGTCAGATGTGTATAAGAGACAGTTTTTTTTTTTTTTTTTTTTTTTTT…TC; details: aptamer strand: ATP DNA aptamer (quencher-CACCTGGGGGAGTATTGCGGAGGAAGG + anchor), 100 nM annealed; ATP concentration: 500 uM;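 note: ATP exposure 15 min at 22 °C before imaging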

>  <SEQUENCE DATA>
GCTTTAAAAT

>  <switch fluorescence ratio>
1

$$$$
>  <SEQUENCE DATA>
TGCGATGACT

>  <switch fluorescence ratio>
1.45

$$$$
>  <SEQUENCE DATA>
TACAGGCGGA

>  <switch fluorescence ratio>
1.02

$$$$
>  <SEQUENCE DATA>
TTGGTGCCGT

>  <switch fluorescence ratio>
1.13

$$$$
>  <SEQUENCE DATA>
TATCCAGGGG

>  <switch fluorescence ratio>
2.06

$$$$
>  <SEQUENCE DATA>
CGGGGGGGTT

>  <switch fluorescence ratio>
1.02

$$$$
>  <SEQUENCE DATA>
ATATCTATGG

>  <switch fluorescence ratio>
0.994

$$$$
>  <SEQUENCE DATA>
TATAGGCCGG

>  <switch fluorescence ratio>
0.991

$$$$
>  <SEQUENCE DATA>
AATAATTGGG

>  <switch fluorescence ratio>
0.997

$$$$
>  <SEQUENCE DATA>
TAAGGTAATA

>  <switch fluorescence ratio>
1.03

$$$$
>  <SEQUENCE DATA>
ATTTTACCAT

>  <switch fluorescence ratio>
1.04

$$$$
>  <SEQUENCE DATA>
CAAGTGTATC

>  <switch fluorescence ratio>
1.02

$$$$
>  <SEQUENCE DATA>
GGGGTGGTGG

>  <switch fluorescence ratio>
0.989

$$$$
>  <SEQUENCE DATA>
AGTGGGAACA

>  <switch fluorescence ratio>
1.01

$$$$
>  <SEQUENCE DATA>
GACTGGGTCG

>  <switch fluorescence ratio>
1.06

$$$$
>  <SEQUENCE DATA>
ATGGGCAGAT

>  <switch fluorescence ratio>
0.994

$$$$
>  <SEQUENCE DATA>
GTTGACAGCT

>  <switch fluorescence ratio>
1

$$$$
>  <SEQUENCE DATA>
TTTGTTAAGC

>  <switch fluorescence ratio>
0.973

$$$$
>  <SEQUENCE DATA>
TGGTGGTGGC

>  <switch fluorescence ratio>
0.981

$$$$
>  <SEQUENCE DATA>
TAGTACTCGT

>  <switch fluorescence ratio>
1.01

$$$$
>  <SEQUENCE DATA>
TGATTCAAAG

>  <switch fluorescence ratio>
1.01

$$$$
>  <SEQUENCE DATA>
GAGGGAGGAG

>  <switch fluorescence ratio>
1

$$$$
>  <SEQUENCE DATA>
CAGTAGAATA

>  <switch fluorescence ratio>
1.02

$$$$
>  <SEQUENCE DATA>
ACAATGTCTA

>  <switch fluorescence ratio>
0.962

$$$$
>  <SEQUENCE DATA>
CAGGCATTAT

>  <switch fluorescence ratio>
1.08

$$$$
>  <SEQUENCE DATA>
ATATCGTATT

>  <switch fluorescence ratio>
1

$$$$
>  <SEQUENCE DATA>
TCCAGTAATA

>  <switch fluorescence ratio>
1.17

$$$$
>  <SEQUENCE DATA>
TTTCTCTGAG

>  <switch fluorescence ratio>
1.04

$$$$
>  <SEQUENCE DATA>
GGGATCGGGG

>  <switch fluorescence ratio>
0.988

$$$$
>  <SEQUENCE DATA>
TTCTGGTTTG

>  <switch fluorescence ratio>
0.975

$$$$
>  <SEQUENCE DATA>
TTTTGCTGTA

>  <switch fluorescence ratio>
1.04

$$$$
>  <SEQUENCE DATA>
TTTTGAAGTT

>  <switch fluorescence ratio>
1

$$$$
>  <SEQUENCE DATA>
TTGGGGAACA

>  <switch fluorescence ratio>
1.01

$$$$
>  <SEQUENCE DATA>
TGAAAGCGCC

>  <switch fluorescence ratio>
1.07

$$$$
>  <SEQUENCE DATA>
AGGAGGGTAG

>  <switch fluorescence ratio>
1

$$$$
>  <SEQUENCE DATA>
GAGTTAAGGA

>  <switch fluorescence ratio>
1.02

$$$$
>  <SEQUENCE DATA>
TTACAGGACG

>  <switch fluorescence ratio>
1.2

$$$$
>  <SEQUENCE DATA>
TGACAATGTT

>  <switch fluorescence ratio>
0.994

$$$$
>  <SEQUENCE DATA>
TTCCAAAAAA

>  <switch fluorescence ratio>
1.1

$$$$
>  <SEQUENCE DATA>
AAGACGGGTT

>  <switch fluorescence ratio>
1.02

$$$$
>  <SEQUENCE DATA>
GAGAATAGCG

>  <switch fluorescence ratio>
0.988

$$$$
>  <SEQUENCE DATA>
TGGTAGAGAT

>  <switch fluorescence ratio>
1.01

$$$$
>  <SEQUENCE DATA>
CTATAATGTT

>  <switch fluorescence ratio>
0.995

$$$$
